- System: HL-60(TB)
- protocol_description: Growth inhibition of human HL-60(TB) cells at 10 uM after 48 hrs by SRB assay relative to control
- Format: functional
- setup_conditions: HL-60, 48 h, read-out: GI
observable: inhibition of growth at 10 µM (%)
Lab book: enter the figure in %, no units written.

-- ask API: value(readout=inhibition of growth at 10 µM, system=HL-60(TB)) for record `COc1ccc(C(=O)Nc2cccc(-c3cc(=O)c4c(OC)c(OC)c(OC)cc4o3)c2)cc1`
-- reply 55.2

-- ask API: value(readout=inhibition of growth at 10 µM, system=HL-60(TB)) for record `COc1cccc(C(=O)Nc2cccc(-c3cc(=O)c4c(OC)c(OC)c(OC)cc4o3)c2)c1`
-- reply 14.8

-- ask API: value(readout=inhibition of growth at 10 µM, system=HL-60(TB)) for record `Cc1ccc(NC(=O)c2ccc(CN3CCN(C)CC3)cc2)cc1Nc1nccc(-c2cccnc2)n1`
-- reply -6.8

Now look at this one.
-- ask API: value(readout=inhibition of growth at 10 µM, system=HL-60(TB)) for record `COc1cc2oc(-c3cccc(C(=O)Nc4ccc5c(c4)OCO5)c3)cc(=O)c2c(OC)c1OC`
-- reply 30.3

* * *

The reader will find reported inhibition of growth at 10 µM values listed item by item below.
- System: NCI-H226
- protocol_description: Growth inhibition of human NCI-H226 cells at 10 uM after 48 hrs by SRB assay relative to control
- Type: functional
- setup_conditions: NCI-H226, 48 h, read-out: GI
Lab book: enter the figure in %, no units written.

Examples with their reported inhibition of growth at 10 µM follow.
-- ask Which inhibition of growth at 10 µM reading was recorded for the molecule `COc1ccccc1NC(=O)c1cccc(-c2cc(=O)c3c(OC)c(OC)c(OC)cc3o2)c1` ?
-- reply 37.2

-- ask Which inhibition of growth at 10 µM reading was recorded for the molecule `COc1cccc(NC(=O)c2cccc(-c3cc(=O)c4c(OC)c(OC)c(OC)cc4o3)c2)c1` ?
-- reply 36.7

More entries:
-- ask Which inhibition of growth at 10 µM reading was recorded for the molecule `COc1cc2oc(-c3cccc(C(=O)Nc4ccccc4)c3)cc(=O)c2c(OC)c1OC` ?
-- reply 12.7

* * *

- Test system: OVCAR-4
- protocol_description: Growth inhibition of human OVCAR4 cells at 10 uM after 48 hrs by SRB assay relative to control
- Type: functional
- setup_conditions: OVCAR-4, 48 h, read-out: GI
The reader will find reported inhibition of growth at 10 µM values listed item by item below.
Answer format reminder: number followed by unit.

Examples with their reported inhibition of growth at 10 µM follow.
-- ask API: value(readout=inhibition of growth at 10 µM, system=OVCAR-4) for record `COc1ccccc1C(=O)Nc1cccc(-c2cc(=O)c3c(O)c(OC)c(OC)cc3o2)c1`
-- reply -5.24%

-- ask API: value(readout=inhibition of growth at 10 µM, system=OVCAR-4) for record `COc1cc2oc(-c3cccc(C(=O)Nc4ccc5c(c4)OCO5)c3)cc(=O)c2c(OC)c1OC`
-- reply 3.72%

-- ask API: value(readout=inhibition of growth at 10 µM, system=OVCAR-4) for record `COc1ccccc1C(=O)Nc1cccc(-c2cc(=O)c3c(OC)c(OC)c(OC)cc3o2)c1`
-- reply 41%

More entries:
-- ask API: value(readout=inhibition of growth at 10 µM, system=OVCAR-4) for record `COc1cc2oc(-c3cccc(C(=O)Nc4ccc5c(c4)OCO5)c3)cc(=O)c2c(O)c1OC`
-- reply 99.9%

Cited source: ChEMBL document CHEMBL4325889
